B1: COX4I1 (parent)
chain: FDKEWVAKQTKRMLDMKVNPIQGL

Variants of: B1
Assay: protein stability index of a GFP-peptide fusion (GPS, HEK-293T) (PSI 1-6); higher = more stable;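 further: lentivirally expressed fusions sorted by FACS into six bins by GFP to DsRed ratio, PSI derived from sequencing read proportions per bin multiplied by bin number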
Conditions: c terminus: a fixed tail appended
protein stability index overview
quantity: protein stability index

- mutationNotation: "V18I"
  quantity: "protein stability index"
  endpointValue: 1.65
- mutationNotation: "P20T"
  quantity: "protein stability index"
  endpointValue: 2.38
- mutationNotation: "W5F"
  quantity: "protein stability index"
  endpointValue: 2.8
- mutationNotation: "K8E"
  quantity: "protein stability index"
  endpointValue: 2.35
- mutationNotation: "T10I"
  quantity: "protein stability index"
  endpointValue: 2.82
- mutationNotation: "L14D"
  quantity: "protein stability index"
  endpointValue: 2.06
- mutationNotation: "K3C"
  quantity: "protein stability index"
  endpointValue: 2.12
- mutationNotation: "I21A"
  quantity: "protein stability index"
  endpointValue: 1.54
- mutationNotation: "Q9F"
  quantity: "protein stability index"
  endpointValue: 1.54
- mutationNotation: "Q22A"
  quantity: "protein stability index"
  endpointValue: 1.93
- mutationNotation: "I21F"
  quantity: "protein stability index"
  endpointValue: 1.46
- mutationNotation: "L14P"
  quantity: "protein stability index"
  endpointValue: 1.65
- mutationNotation: "P20I"
  quantity: "protein stability index"
  endpointValue: 1.56
- mutationNotation: "W5M"
  quantity: "protein stability index"
  endpointValue: 3.52
- mutationNotation: "G23A"
  quantity: "protein stability index"
  endpointValue: 1.43
- mutationNotation: "G23L"
  quantity: "protein stability index"
  endpointValue: 1.35
- mutationNotation: "G23R"
  quantity: "protein stability index"
  endpointValue: 1.48
- mutationNotation: "T10E"
  quantity: "protein stability index"
  endpointValue: 2.21
- mutationNotation: "M16W"
  quantity: "protein stability index"
  endpointValue: 2.02
- mutationNotation: "Q22I"
  quantity: "protein stability index"
  endpointValue: 2.79
- mutationNotation: "M13Y"
  quantity: "protein stability index"
  endpointValue: 1.63
- mutationNotation: "G23S"
  quantity: "protein stability index"
  endpointValue: 1.7
- mutationNotation: "N19F"
  quantity: "protein stability index"
  endpointValue: 1.77
- mutationNotation: "K8A"
  quantity: "protein stability index"
  endpointValue: 1.06
- mutationNotation: "V18L"
  quantity: "protein stability index"
  endpointValue: 1.72
- mutationNotation: "K8L"
  quantity: "protein stability index"
  endpointValue: 2.31
- mutationNotation: "W5G"
  quantity: "protein stability index"
  endpointValue: 3.92
- mutationNotation: "L14Q"
  quantity: "protein stability index"
  endpointValue: 1.23
- mutationNotation: "L14I"
  quantity: "protein stability index"
  endpointValue: 2.1
- mutationNotation: "W5P"
  quantity: "protein stability index"
  endpointValue: 3.63
- mutationNotation: "F1S"
  quantity: "protein stability index"
  endpointValue: 3.34
- mutationNotation: "A7P"
  quantity: "protein stability index"
  endpointValue: 2.05
- mutationNotation: "K8D"
  quantity: "protein stability index"
  endpointValue: 2.29
- mutationNotation: "I21E"
  quantity: "protein stability index"
  endpointValue: 1.66
- mutationNotation: "V6D"
  quantity: "protein stability index"
  endpointValue: 2.78
